# Test system: PC-12
# ASSAY_DETAILS: Antitumor effect by MTT assay, PC-12 tumor cells
# Type: cell-based
# ASSAY_CONDITIONS: Rattus norvegicus, PC-12, 72 h, read-out: GI50 Value
MEASURED_ATTRIBUTE: GI50 (ng/mL)
Give just the numeric value; ng/mL need not be written.

Example molecules with recorded GI50:
MOLECULE	TESTED_ON	GI50 / ng/mL
COC(=O)CCC1C(=O)[C@@]2(C)[C@H]([C@H](OC(=O)c3ccccc3)[C@]3(O)C[C@H](OC(=O)[C@H](O)[C@@H](NC(=O)OC(C)(C)C)c4ccccc4)C(C)=C1C3(C)C)[C@]1(OC(C)=O)CO[C@@H]1C[C@@H]2O (stereo partly shown)	PC-12	24.4
CCC(=O)O[C@@]12CO[C@@H]1C[C@H](O)[C@@]1(C)C(=O)C(CCN3CCOCC3)C3=C(C)[C@@H](OC(=O)C(O)C(C=C(C)C)NC(=O)OC(C)(C)C)C[C@@](O)([C@@H](OC(=O)c4ccccc4)[C@H]21)C3(C)C (single isomer, unassigned) [Example 33 Isomer B]	PC-12	4.16
CCC(=O)O[C@@]12CO[C@@H]1C[C@H](O)[C@@]1(C)C(=O)C(CCN3CCOCC3)C3=C(C)[C@@H](OC(=O)[C@H](O)[C@@H](NC(=O)OC(C)(C)C)c4ccco4)C[C@@](O)([C@@H](OC(=O)c4ccccc4)[C@H]21)C3(C)C (stereo partly shown)	PC-12	1.26
CCC(=O)O[C@@]12CO[C@@H]1C[C@H](O)[C@@]1(C)C(=O)C(CCN3CCOCC3)C3=C(C)[C@@H](OC(=O)[C@H](O)[C@@H](NC(=O)OC(C)(C)C)c4ccccc4)C[C@@](O)([C@@H](OC(=O)c4ccccc4)[C@H]21)C3(C)C (stereo partly shown)	PC-12	5.64
CC(=O)O[C@@]12CO[C@@H]1C[C@H](O)[C@@]1(C)C(=O)C(CC=O)C3=C(C)[C@@H](OC(=O)[C@H](O)[C@@H](NC(=O)OC(C)(C)C)c4ccccc4)C[C@@](O)([C@@H](OC(=O)c4ccccc4)[C@H]21)C3(C)C (stereo partly shown)	PC-12	12.9
CC1=C2C(CCN3CCOCC3)C(=O)[C@@]3(C)[C@H]([C@H](OC(=O)c4ccccc4)[C@](O)(C[C@@H]1OC(=O)[C@H](O)[C@@H](NC(=O)OC(C)(C)C)c1ccccc1)C2(C)C)[C@]1(OC(=O)C2CC2)CO[C@@H]1C[C@@H]3O (stereo partly shown)	PC-12	1.81
CCOC(=O)O[C@@]12CO[C@@H]1C[C@H](O)[C@@]1(C)C(=O)C(CCN3CCOCC3)C3=C(C)[C@@H](OC(=O)[C@H](O)[C@@H](NC(=O)OC(C)(C)C)c4ccccc4)C[C@@](O)([C@@H](OC(=O)c4ccccc4)[C@H]21)C3(C)C (stereo partly shown)	PC-12	2.95
CCCC(=O)O[C@@]12CO[C@@H]1C[C@H](O)[C@@]1(C)C(=O)C(CCN3CCOCC3)C3=C(C)[C@@H](OC(=O)[C@H](O)[C@@H](NC(=O)OC(C)(C)C)c4ccccc4)C[C@@](O)([C@@H](OC(=O)c4ccccc4)[C@H]21)C3(C)C (stereo partly shown)	PC-12	4.99

I'm curious: which GI50 was measured for C=CCC1C(=O)[C@@]2(C)[C@H]([C@H](OC(=O)c3ccccc3)[C@]3(O)C[C@H](OC(=O)[C@H](O)[C@@H](NC(=O)OC(C)(C)C)c4ccccc4)C(C)=C1C3(C)C)[C@]1(OC(C)=O)CO[C@@H]1C[C@@H]2O (stereo partly shown) tested on PC-12?
7.87

# value lookup — system PC-12, readout GI50, item "CC(=O)O[C@H]1C(=O)[C@@]2(C)[C@H]([C@H](OC(=O)c3ccccc3)[C@]3(O)C[C@H](OC(=O)[C@H](O)[C@@H](NC(=O)c4ccccc4)c4ccccc4)C(C)=C1C3(C)C)[C@]1(OC(C)=O)CO[C@@H]1C[C@@H]2O"
136
